// data source = patent EP3262036B1

Field: pIC50. Provide a value for each of the compounds that follow.
measured-on: BRM (Isoform 2) Bromodomain (Homo sapiens, UniProt P51531)
Sequence (P51531 1377-1486 isoform P51531-2): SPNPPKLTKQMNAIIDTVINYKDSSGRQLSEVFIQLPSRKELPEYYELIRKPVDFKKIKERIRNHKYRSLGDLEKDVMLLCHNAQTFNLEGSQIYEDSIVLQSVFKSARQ
test-details: biochemical
Give only the number. pIC50 is defined as minus log10 of concentration in molar units.

Incoming: Please list pIC50 recorded for the compound Nc1nnc(-c2ccccc2O)cc1N1CCOCC1
Outgoing: 7.15

Incoming: Please list pIC50 recorded for the compound CN(C)CCOc1cc(-c2ccccc2O)nnc1N
Outgoing: 6.56

Incoming: Please list pIC50 recorded for the compound CC(Cc1ccccc1)Oc1cc(-c2ccccc2O)nnc1N (stereo not drawn)
Outgoing: 7.03

* * *

measured-on: BRG1 (Homo sapiens, UniProt P51532)
Sequence (P51532 1448-1575): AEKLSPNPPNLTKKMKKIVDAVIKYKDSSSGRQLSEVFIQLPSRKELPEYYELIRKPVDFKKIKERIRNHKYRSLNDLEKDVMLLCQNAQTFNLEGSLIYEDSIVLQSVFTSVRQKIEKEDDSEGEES
test-details: biochemical
Format: binding
test-parameters: BRG1 HTRF IC50 (µM)
Text: IC50 measurements for inhibitors using BRG1 TR-FRET Binding Assay
Quick rule for you: IC50 under 0.1 µM gets Met, anything else gets Not met.

Incoming: Find out if reported IC50 for CC(C)(C)OC(=O)N1CCc2cc(CN3CCN(c4cc(-c5ccccc5O)nnc4N)CC3)ccc21 [Example 106] is less than 0.1 µM
Outgoing: Not met

Incoming: Find out if reported IC50 for Nc1nnc(-c2cc(F)cc(F)c2O)cc1-c1ccccc1 [Example 232] is less than 0.1 µM
Outgoing: Not met

Incoming: Find out if reported IC50 for CN1CCOC2(CCN(c3cc(-c4ccccc4O)nnc3N)CC2)C1 [Example 25] is less than 0.1 µM
Outgoing: Met

Incoming: Find out if reported IC50 for Nc1nnc(-c2ccccc2O)cc1OC1CCCN(C(=O)c2ccccc2)C1 (stereo not drawn) [Example 185] is less than 0.1 µM
Outgoing: Not met

Incoming: Find out if reported IC50 for Nc1nnc(-c2ccccc2O)cc1N1CCC(O)(Cc2ccccc2)C1 (stereo not drawn) [Example 39] is less than 0.1 µM
Outgoing: Not met

Incoming: Find out if reported IC50 for CC(C(=O)N(C)C)n1cnc(-c2cc(-c3ccccc3O)nnc2N)c1 (stereo not drawn) [Example 197] is less than 0.1 µM
Outgoing: Met

Incoming: Find out if reported IC50 for C[C@@H]1CN(c2cc(-c3ccccc3O)nnc2N)CCN1C(=O)C(C)(C)O [Example 145] is less than 0.1 µM
Outgoing: Met

Incoming: Find out if reported IC50 for Nc1nnc(-c2ccccc2O)cc1N1CCC(c2ccccc2)CC1 [Example 18] is less than 0.1 µM
Outgoing: Met

* * *

measured-on: BRG1 (Homo sapiens, UniProt P51532)
test-details: biochemical
Type: binding
test-parameters: BRG1 HTRF IC50 (µM)
Note to self: class labels come from recorded IC50, ranges listed here: A (below 0.03 µM), B (0.03 µM to below 0.1 µM), C (0.1 µM or more)

Incoming: Which class does Cn1cc(CN2CCN(c3cc(-c4ccccc4O)nnc3N)CC2)cn1 [Example 107] fall in?
Outgoing: B

Incoming: Which class does CNc1ccc(-c2ccccc2O)nn1 [Example 204, 2-(6-(methylamino)pyridazin-3-yl)phenol] fall in?
Outgoing: C

Incoming: Which class does Nc1nnc(-c2ccccc2O)cc1N1CCC(c2ccccc2)C1 (stereo not drawn) [Example 55] fall in?
Outgoing: C

Incoming: Which class does Cn1ncc2c(CN3CCN(c4cc(-c5ccccc5O)nnc4N)CC3)cccc21 [Example 103] fall in?
Outgoing: A

Incoming: Which class does Nc1nnc(-c2ccccc2O)cc1N1CCN(Cc2ccccc2)C(=O)C1 [Example 14] fall in?
Outgoing: B

Incoming: Which class does CC1CN(c2cc(-c3ccccc3O)nnc2N)CCC1(O)c1ccccc1 (stereo not drawn) [Example 44] fall in?
Outgoing: A

Incoming: Which class does CC1CN(c2cc(-c3ccccc3O)nnc2N)CCN1S(=O)(=O)c1ccccc1 (stereo not drawn) [Example 109] fall in?
Outgoing: A

Incoming: Which class does CN1CCC(c2cc(-c3ccccc3O)nnc2N)C1 (stereo not drawn) [Example 216, 2,2,2-trifluoroacetate] fall in?
Outgoing: C

Incoming: Which class does C[C@@H]1CN(c2cc(-c3ccccc3O)nnc2N)C[C@H](C)O1 [Example 243] fall in?
Outgoing: B

* * *

measured-on: BRG1 (Homo sapiens, UniProt P51532)
test-details: biochemical
Type: binding
test-parameters: BRG1 HTRF IC50 (µM)
Quick rule for you: IC50 under 0.06 µM gets Y, anything else gets N.

Incoming: Find out if reported IC50 for Nc1nnc(-c2ccccc2O)cc1C1CCCN(Cc2ccccc2)C1 (stereo not shown) is less than 0.06 µM
Outgoing: N

Incoming: Find out if reported IC50 for C[C@H](C1CCN(c2cc(-c3ccccc3O)nnc2N)CC1)N(C)C is less than 0.06 µM
Outgoing: Y

Incoming: Find out if reported IC50 for CN(C)CC1(O)CCN(c2cc(-c3ccccc3O)nnc2N)CC1 is less than 0.06 µM
Outgoing: Y

Incoming: Find out if reported IC50 for C[C@@H]1CN(c2cc(-c3ccccc3O)nnc2N)CCN1S(=O)(=O)c1nccn1C is less than 0.06 µM
Outgoing: Y

Incoming: Find out if reported IC50 for CS(=O)(=O)N1C2CCC1CN(c1cc(-c3ccccc3O)nnc1N)C2 is less than 0.06 µM
Outgoing: Y

Incoming: Find out if reported IC50 for CN(C)CCCOc1cc(-c2ccccc2O)nnc1N is less than 0.06 µM
Outgoing: N

Incoming: Find out if reported IC50 for CC1(C)CN(c2cc(-c3ccccc3O)nnc2N)CCN1S(C)(=O)=O is less than 0.06 µM
Outgoing: Y

Incoming: Find out if reported IC50 for Cc1ccc(S(=O)(=O)N2CC=C(c3cc(-c4ccccc4O)nnc3N)CC2)cc1 is less than 0.06 µM
Outgoing: N

Incoming: Find out if reported IC50 for NC(=O)C1CCN(c2cc(-c3ccccc3O)nnc2N)CC1 is less than 0.06 µM
Outgoing: N

Incoming: Find out if reported IC50 for Cc1noc(C)c1C(=O)N1CCN(c2cc(-c3ccccc3O)nnc2N)CC1C (stereo not shown) is less than 0.06 µM
Outgoing: N

Incoming: Find out if reported IC50 for Nc1nnc(-c2ccccc2O)cc1OC1CCCN(c2ccccc2)C1 (stereo not shown) is less than 0.06 µM
Outgoing: Y

Incoming: Find out if reported IC50 for Nc1nnc(-c2ccccc2O)cc1N1CCC2(CC1)CNC(=O)C2 is less than 0.06 µM
Outgoing: Y

Incoming: Find out if reported IC50 for CC1CN(c2cc(-c3ccccc3O)nnc2N)CCN1Cc1ccccc1 (stereo not shown) is less than 0.06 µM
Outgoing: Y

Incoming: Find out if reported IC50 for CC1CN(c2cc(-c3ccccc3O)nnc2N)CCN1C(=O)Cc1ccccn1 (stereo not shown) is less than 0.06 µM
Outgoing: Y

Incoming: Find out if reported IC50 for CC(=O)Nc1ccc(-c2ccccc2O)nn1 is less than 0.06 µM
Outgoing: N

Incoming: Find out if reported IC50 for Nc1nnc(-c2ccccc2O)cc1N1CC2CCC(C1)N2Cc1ccccc1 is less than 0.06 µM
Outgoing: Y

Incoming: Find out if reported IC50 for CC(Oc1cc(-c2ccccc2O)nnc1N)C1CCOCC1 (stereo not shown) is less than 0.06 µM
Outgoing: N

Incoming: Find out if reported IC50 for CN1CCC(c2cc(-c3ccccc3O)nnc2N)CC1 is less than 0.06 µM
Outgoing: N

* * *

measured-on: BRG1 (Homo sapiens)
test-details: biochemical
Assay type: binding
test-parameters: BRG1 HTRF IC50 (µM)
Note to self: class labels come from recorded IC50, ranges listed here: Low: < 0.04 µM; Medium: ≥ 0.04 µM and < 0.08 µM; High: ≥ 0.08 µM

Incoming: Which class does Nc1nnc(-c2ccccc2O)cc1N1CCN(Cc2ncco2)CC1 fall in?
Outgoing: Medium

Incoming: Which class does CN1CCCC(Oc2cc(-c3ccccc3O)nnc2N)C1 (stereo not shown) fall in?
Outgoing: High

Incoming: Which class does Nc1nnc(-c2cc(F)ccc2O)cc1-c1ccccc1 fall in?
Outgoing: Medium

Incoming: Which class does Nc1nnc(-c2ccccc2O)cc1N1C[C@@H]2C[C@H]1CN2Cc1ccccc1 fall in?
Outgoing: High

Incoming: Which class does Nc1nnc(-c2ccccc2O)cc1C1CCN(S(=O)(=O)c2ccccc2)CC1 fall in?
Outgoing: Medium

Incoming: Which class does Nc1nnc(-c2ccccc2O)cc1OC1CCCC1 fall in?
Outgoing: Low

Incoming: Which class does Nc1nnc(-c2ccccc2O)cc1N1CCC(O)(c2ccccc2)CC1 fall in?
Outgoing: Low

Incoming: Which class does C[C@@H]1CN(c2cc(-c3ccccc3O)nnc2N)CCN1C(=O)c1cccnc1 fall in?
Outgoing: Medium

Incoming: Which class does CNC(=O)CN1C2CCC1CN(c1cc(-c3ccccc3O)nnc1N)C2 fall in?
Outgoing: High

Incoming: Which class does Nc1nnc(-c2ccccc2O)cc1N1CCN(CC(F)(F)F)CC1 fall in?
Outgoing: Medium

Incoming: Which class does CC(=O)N1[C@@H](C)CN(c2cc(-c3ccccc3O)nnc2N)C[C@@H]1C fall in?
Outgoing: High

Incoming: Which class does Cn1ncc2cc(CN3CCN(c4cc(-c5ccccc5O)nnc4N)CC3)ccc21 fall in?
Outgoing: Low

Incoming: Which class does Nc1nnc(-c2ccccc2O)cc1N1CC2CC1CN2c1ccccn1 (stereo not shown) fall in?
Outgoing: Low

Incoming: Which class does N#Cc1cccc(CN2CCN(c3cc(-c4ccccc4O)nnc3N)CC2)c1 fall in?
Outgoing: Medium

Incoming: Which class does CC1CN(c2cc(-c3ccccc3O)nnc2N)CC(C)N1Cc1ccccc1 (stereo not shown) fall in?
Outgoing: High

Incoming: Which class does CN(C)C(=O)N1C2CCC1CN(c1cc(-c3ccccc3O)nnc1N)C2 fall in?
Outgoing: Low

Incoming: Which class does Nc1nnc(-c2ccccc2O)cc1N1CC(Oc2ccccc2)C1 fall in?
Outgoing: Low

Incoming: Which class does Nc1nnc(-c2ccccc2O)cc1N1CC2CCC(C1)N2c1cnccn1 fall in?
Outgoing: Low

Incoming: Which class does CC(C)n1cc(CN2CCN(c3cc(-c4ccccc4O)nnc3N)CC2)cn1 fall in?
Outgoing: High
